System: LXRa:RXRa (NR concentration 270 nM, RXRa partner concentration 90 nM)
Assay: PBM binding z-score (relative to random genomic background probes); higher = stronger binding; sequences stand for … in GC…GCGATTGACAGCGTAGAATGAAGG
Binning of PBM binding z-score into classes: lo (below 0.5), med (0.5 to below 2), hi (2 or more)

CHAIN_SEQUENCE	CATEGORY
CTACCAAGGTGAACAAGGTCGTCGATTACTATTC	med
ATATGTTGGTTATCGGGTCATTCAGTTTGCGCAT	hi
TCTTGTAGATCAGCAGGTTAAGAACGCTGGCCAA	lo
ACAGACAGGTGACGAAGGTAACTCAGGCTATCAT	lo
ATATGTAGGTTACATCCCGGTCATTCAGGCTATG	hi
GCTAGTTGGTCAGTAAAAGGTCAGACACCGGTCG	hi
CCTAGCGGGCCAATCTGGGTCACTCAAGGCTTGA	med
